- protocol-text: PAMPA parallel artificial membrane permeability assay
- condition-set: PAMPA, pH 7.4, PAMPA Papp pH 7.4, donor pH 7.4, 10 µM
observation-type: Papp at 16 h, 10 μM (×10⁻⁶ cm/s)

compound: CCC(C)CNCC(=O)N1CCc2sccc2C1c1cccc(C)n1 (stereo not shown)
Papp at 16 h, 10 μM [×10⁻⁶ cm/s]: 42.4

P. C=CCNCC(=O)N1CCc2sccc2C1COc1ccc(Cl)cc1 (stereo not shown)
Q. CCC(C)CNCC(=O)N1CCc2ccccc2C1c1ccccc1 (stereo not shown)
Task: Field: lower Papp at 16 h, 10 μM | Options: P / Q State the label of the item chosen.
Result: P
(P: 20.4 ×10⁻⁶ cm/s, Q: 53.9 ×10⁻⁶ cm/s)
